Every entry's value here was drawn from PubChem BioAssay.

Assay: JC-1 mitochondrial potential readout, lung cancer cells – cell-based, A549, JC-1 fluorescence, basal, 24 h, 100 nL, profiling panel (AID 1138);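 note: A549 lung adenocarcinoma cells under basal conditions with no added stimulus; test concentration not given here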
Settings: higher = more signal
Rule: z-score of 0.2 or more gives Criterion met; anything lower gives Criterion not met.

// below: answered compounds
| Compound | Label |
| --- | --- |
| CC(C)C(=C=CC[C@H](O)c1ccccc1OCCO)C[C@H](O)c1cc(Cl)cc(Cl)c1O | Criterion met |
| NC(=O)N1C(=O)C2C(C1=O)C1C=C(CCCO)C2C(C2CC2)N1Cc1sc2ccccc2c1Cl (stereo unspecified) | Criterion met |
| CC(C)N1C(=O)C[C@@](C(=O)NCCN2CCOCC2)(c2ccc([N+](=O)[O-])cc2)[C@H]1c1ccc(CO)cc1 | Criterion not met |
| O=C1O[C@H](c2ccccc2)[C@H](c2ccccc2)N2[C@H]1[C@@H](C(=O)O)[C@]1(C(=O)Nc3ccc(C#CCCO)cc31)[C@H]2c1ccc(OCCO)cc1 | Criterion met |

Request: Please check the record O=C1O[C@H](Cc2ccccc2)[C@@H]2[C@H]3C=CCCC=C3CN2[C@H]1Cc1ccc(O)cc1 and state if its z-score is at or above 0.2.
Result: Criterion not met

Request: Next compound: C=CCNC(=O)[C@H]1[C@@H]2C(=O)O[C@@H](c3ccccc3)[C@@H](c3ccccc3)N2[C@@H](c2ccc(OCCO)cc2)[C@]12C(=O)Nc1ccc(C#CC3(O)CCCCCC3)cc12
Result: Criterion met

Request: // query: O=C(NCc1ccccc1)[C@@H]1c2ccccc2C(=O)N(Cc2cc(C(F)(F)F)cc(C(F)(F)F)c2)[C@H]1c1ccc(CO)cc1
Result: Criterion met

----------
Molecular target: E3 ubiquitin-protein ligase XIAP (Homo sapiens) (UniProt P98170)
Sequence (P98170 whole entry, looked up): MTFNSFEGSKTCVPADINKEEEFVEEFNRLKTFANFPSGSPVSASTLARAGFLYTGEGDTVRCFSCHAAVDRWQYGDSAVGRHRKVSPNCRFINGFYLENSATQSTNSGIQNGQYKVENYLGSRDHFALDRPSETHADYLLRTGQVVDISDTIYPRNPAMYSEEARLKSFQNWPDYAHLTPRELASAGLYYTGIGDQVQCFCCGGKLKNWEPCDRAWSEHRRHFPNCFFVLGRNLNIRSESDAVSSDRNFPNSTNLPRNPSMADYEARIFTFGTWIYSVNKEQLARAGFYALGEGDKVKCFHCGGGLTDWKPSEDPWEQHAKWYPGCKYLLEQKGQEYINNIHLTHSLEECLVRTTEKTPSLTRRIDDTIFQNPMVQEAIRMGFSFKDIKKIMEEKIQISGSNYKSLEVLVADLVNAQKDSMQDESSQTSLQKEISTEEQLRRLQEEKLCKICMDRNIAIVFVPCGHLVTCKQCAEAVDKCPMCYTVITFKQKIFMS
Assay: small molecules binding XIAP protein – biophysical, small-molecule microarray, fluorescence 635 nm, primary screen (AID 1181)
Conditions: higher = more signal
The label depends only on composite z-score: Criterion met if it is at least -0.02, Criterion not met if it is smaller.

Recorded results for 3 compounds are shown here.
| Compound | Label |
| --- | --- |
| O=C1O[C@@H](c2ccccc2)[C@@H](c2ccccc2)N2[C@@H](c3ccc(OCCO)cc3)[C@]3(C(=O)Nc4ccc(C#CC5(O)CCCCCC5)cc43)[C@@H](C(=O)O)[C@H]12 | Criterion not met |
| Cc1ccc(S[C@]2(C(=O)NCCCN(C)C)CC(=O)N(C3Cc4ccccc4C3)[C@@H]2c2ccc(CO)cc2I)cc1 | Criterion not met |
| CC(C)(C)N1CC=CC23O[C@@H]4/C=C\CCCOC(=O)C4[C@H]2C(=O)N(CCCO)[C@@H]3C1=O (stereo partly drawn) | Criterion not met |

Request: Kindly determine if composite z-score recorded for C=C(CCCC)C(=O)CC[C@H](OC(=O)c1ccccc1-c1ccccc1C(=O)O)c1ccc(OCCO)cc1 is above or exactly -0.02.
Result: Criterion met

Request: Another: NC(=O)NCC#Cc1ccc2c(c1)[C@]1(C(=O)N2)[C@H](c2ccc(OCCO)cc2)N2[C@H](c3ccccc3)[C@H](c3ccccc3)OC(=O)[C@H]2[C@@H]1C(=O)NC[C@H](O)c1ccccc1
Result: Criterion met

Request: Subsequent entry: C=CCN1C(=O)[C@@]2(O[C@@H](CCn3cc([C@H](O)c4ccccc4)nn3)[C@H]([Si](C)(C)c3ccc(OC)cc3)[C@H]2C)c2cc(N3C(=O)c4cccc5cccc3c45)ccc21
Result: Criterion met

Request: Try the compound CCC(CC)C(O)C1C=CC2C(=O)N(c3ccccc3)C(=O)C2N1Nc1ccccc1F (stereo not drawn)
Result: Criterion met
